Assay: chemical genetic growth profiling, strain panel (AID 1159580);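 further: tested at 20 µM; growth read once vehicle control cultures reached saturation at 30 °C; 1 = growth at the plate median or of vehicle wells; lower values mean less growth of the strain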
Conditions: S. cerevisiae deletion strains, growth OD, locus YLR262C, strain YPT6, active compounds read low
About 2,000 (36%) of roughly 5,500 compounds were called active. Not shown: some 18% with an inconclusive outcome. The list shows a part of the results.

{"MOLECULE": "O=C(/C=C/c1ccc(O)cc1)c1ccc(O)cc1O", "normalized growth": 1.02}
{"MOLECULE": "Cc1c(C)c(C)c(S(=O)(=O)Nc2ccccc2N)c(C)c1C", "normalized growth": 0.981}
{"MOLECULE": "CCCc1ccc(-c2nc(-c3ccc(C)cc3)no2)cc1", "normalized growth": 1.04}
{"MOLECULE": "ClC1C(Cl)C(Cl)C(Cl)C(Cl)C1Cl (stereo not given)", "normalized growth": 0.57}
{"MOLECULE": "CCOC(=O)CC(=O)CSc1nnc(N)s1", "normalized growth": 1.01}
{"MOLECULE": "C/C(=N/O)c1ccc2c(c1)C(C)(C)CCC2(C)C", "normalized growth": 0.939}
{"MOLECULE": "Cc1ccc(NC(=S)C(C#N)C(=O)N2CCCC2)c(C)c1 (stereo not given)", "normalized growth": 1}
{"MOLECULE": "Oc1cccc2cccnc12", "normalized growth": 0.124}
{"MOLECULE": "COc1ccc(CC(=O)c2ccc(O)cc2O)cc1", "normalized growth": 0.669}
{"MOLECULE": "O=[N+]([O-])c1ccc(NCCCCCO)nc1", "normalized growth": 1.01}
{"MOLECULE": "C=C[C@H]1CN2CC[C@H]1C[C@H]2[C@H](O)c1ccnc2ccccc12", "normalized growth": 0.966}
{"MOLECULE": "CC(C)C1CCC(C(=O)N[C@@H](Cc2ccccc2)C(=O)O)CC1 (stereo not given in full)", "normalized growth": 0.964}
{"MOLECULE": "COc1cc(C2Nc3cccc4cccc(c34)N2)cc(OC)c1OC", "normalized growth": 0.808}
{"MOLECULE": "COc1cc(O)ccc1C(C)=O", "normalized growth": 0.899}
{"MOLECULE": "CC(=O)NS(=O)(=O)c1ccc(N)cc1", "normalized growth": 1}
{"MOLECULE": "C=CC1CN2CCC1CC2C(OC(C)=O)c1ccnc2ccc(OC)cc12 (stereo not given)", "normalized growth": 1.06}
{"MOLECULE": "CN(C)CCC[C@@]1(c2ccc(F)cc2)OCc2cc(C#N)ccc21", "normalized growth": 1.04}
{"MOLECULE": "C[C@]12[C@H](O)CC3C(CC[C@@H]4C[C@@H](O)CC[C@]34C)[C@@]1(O)CC[C@@H]2C1=CC(=O)OC1 (stereo not given in full)", "normalized growth": 1.09}
{"MOLECULE": "O=C(NNC(=S)NC1CC2C=CC1C2)c1cccnc1 (stereo not given)", "normalized growth": 0.809}
{"MOLECULE": "COC(=O)c1cc(OC)c(OC)cc1NC(=O)Nc1cc(Cl)cc(Cl)c1", "normalized growth": 0.972}
{"MOLECULE": "CC(C)c1cc2c(c(O)c1O)[C@@]1(C(=O)O)CCCC(C)(C)C1CC2 (stereo not given in full)", "normalized growth": 0.546}
{"MOLECULE": "Nc1nc(Sc2cc(-n3cccc3)c(Cl)cc2[N+](=O)[O-])n[nH]1", "normalized growth": 1}
{"MOLECULE": "COc1ccccc1N1CC(C)(C)C(=O)N(C(=O)c2c(F)cccc2Cl)C1=S", "normalized growth": 0.86}
{"MOLECULE": "CC(C)N1C(=O)c2ccccc2NS1(=O)=O", "normalized growth": 1.02}
{"MOLECULE": "COc1cc2cccc(OC)c(=O)c2c(OC)c1OC", "normalized growth": 1.09}

----------
Test: chemical genetic growth profiling, strain panel (AID 1159580);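 further: tested at 20 µM; growth read once vehicle control cultures reached saturation at 30 °C; 1 = growth at the plate median or of vehicle wells; lower values mean less growth of the strain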
Conditions: S. cerevisiae deletion strains, growth OD, locus YDR195W, strain ref2
The campaign covered roughly 5,500 compounds. About 2,000 (36%) were called active. About 18% were inconclusive and are not listed. Some of the results follow.

{"SMILES_INPUT": "COc1cc(O)c2c(c1)C(=O)c1cc(C)cc(O)c1C2=O", "normalized growth": 1.01}
{"SMILES_INPUT": "CC(C)[C@@H]1CC[C@@H](C)CC1=O", "normalized growth": 0.976}
{"SMILES_INPUT": "NS(=O)(=O)c1cc2c(cc1Cl)NCNS2(=O)=O", "normalized growth": 0.982}
{"SMILES_INPUT": "O=c1c(O)c(-c2ccccc2)oc2cccc(O)c12", "normalized growth": 1.02}

----------
Test: chemical genetic growth profiling, strain panel (AID 1159580);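 further: tested at 20 µM; growth read once vehicle control cultures reached saturation at 30 °C; 1 = growth at the plate median or of vehicle wells; lower values mean less growth of the strain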
Details: S. cerevisiae deletion strains, growth OD, locus YNL307C, strain MCK1, active compounds read low
Hit rate of the full screen: of about 5,500 compounds, about 2,000 (36%) were called active. Inconclusive results (about 18%) are left out. This is one part of the list.

{"MOLECULE": "COC(=O)C[C@H]1C(C)(C)[C@@H](OC(C)=O)[C@@H]2CC3=C4CC(=O)O[C@@H](c5ccoc5)[C@]4(C)CCC3[C@@]1(C)C2=O (stereo partly specified)", "normalized growth": 1.01}
{"MOLECULE": "COc1cc(O)ccc1C(C)=O", "normalized growth": 0.992}
{"MOLECULE": "C=C[C@H]1CN2CC[C@H]1C[C@H]2[C@H](O)c1ccnc2ccccc12", "normalized growth": 0.981}
{"MOLECULE": "COc1cc2c(cc1OC)C(C)NCC2 (stereo unspecified)", "normalized growth": 0.978}
{"MOLECULE": "CNC(C)(C)Cc1ccccc1", "normalized growth": 1.01}
{"MOLECULE": "CNC(=O)Oc1cccc2c1OC(C)(C)C2", "normalized growth": 0.995}

----------
Assay: chemical genetic growth profiling, strain panel (AID 1159580);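 further: tested at 20 µM; growth read once vehicle control cultures reached saturation at 30 °C; 1 = growth at the plate median or of vehicle wells; lower values mean less growth of the strain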
Settings: S. cerevisiae deletion strains, growth OD, locus YPR119W, strain clb2, active compounds read low
About 2,000 (36%) of roughly 5,500 compounds were called active. Not shown: some 18% with an inconclusive outcome. The list shows a part of the results.
Recorded normalized growth, one value per entry.

{"COMPOUND": "Cn1c(=O)[nH]c2ncn(C)c2c1=O", "normalized growth": 0.983}
{"COMPOUND": "COc1cc(O)c2c(c1)C(=O)c1cc(C)cc(O)c1C2=O", "normalized growth": 0.984}
{"COMPOUND": "Cc1cc(O)c2c(c1)C(=O)c1cc(O)cc(O)c1C2=O", "normalized growth": 0.808}
{"COMPOUND": "Cn1c(=O)c2c(ncn2CCO)n(C)c1=O", "normalized growth": 1}
{"COMPOUND": "O=c1c(O)c(-c2ccccc2)oc2ccccc12", "normalized growth": 0.992}
{"COMPOUND": "CC(C)Cn1c(=O)n(C)c(=O)c2[nH]cnc21", "normalized growth": 0.993}
{"COMPOUND": "CC(C)OC(=O)Nc1cccc(Cl)c1", "normalized growth": 0.986}
{"COMPOUND": "CC(C)N=C(N)N=C(N)Nc1ccc(Cl)cc1", "normalized growth": 1.01}
{"COMPOUND": "COC1=CC23CCCN2CCc2cc4c(cc2C3C1O)OCO4 (configuration not stated)", "normalized growth": 1}
{"COMPOUND": "C=C[C@H]1CN2CC[C@H]1C[C@H]2[C@H](O)c1ccnc2ccccc12", "normalized growth": 0.98}
{"COMPOUND": "CC(C)[C@@H]1CC[C@@H](C)C[C@H]1OC(=O)c1ccccc1", "normalized growth": 0.993}
{"COMPOUND": "Cc1cc(O)c2c(c1)C(=O)c1cccc(O)c1C2=O", "normalized growth": 1}
{"COMPOUND": "NS(=O)(=O)c1cc2c(cc1Cl)NCNS2(=O)=O", "normalized growth": 0.992}
{"COMPOUND": "C=C(C)C1Cc2c(ccc3c(=O)c4c(oc23)COc2cc(OC)c(OC)cc2-4)O1 (configuration not stated)", "normalized growth": 0.988}
{"COMPOUND": "CC(=O)OCC1=C(C(=O)O)N2C(=O)[C@@H](NC(=O)CSc3ccncc3)[C@H]2SC1", "normalized growth": 0.982}
{"COMPOUND": "COC(=O)C[C@H]1C(C)(C)[C@@H](OC(C)=O)[C@@H]2CC3=C4CC(=O)O[C@@H](c5ccoc5)[C@]4(C)CCC3[C@@]1(C)C2=O (some centres not stated)", "normalized growth": 0.996}
{"COMPOUND": "NC(=NCCCCCCN=C(N)N=C(N)Nc1ccc(Cl)cc1)N=C(N)Nc1ccc(Cl)cc1", "normalized growth": 0.0667}
{"COMPOUND": "O=C1C=C(O)c2ccccc2C1=O", "normalized growth": 0.966}
{"COMPOUND": "C[C@]12[C@H](O)CC3C(CC[C@@H]4C[C@@H](O)CC[C@]34C)[C@@]1(O)CC[C@@H]2C1=CC(=O)OC1 (some centres not stated)", "normalized growth": 0.985}
{"COMPOUND": "COc1cc([C@@H]2c3cc4c(cc3[C@H](O)[C@H]3COC(=O)[C@H]23)OCO4)cc(OC)c1OC", "normalized growth": 1.01}
{"COMPOUND": "C[N+]12CCC(CC1)C(OC(=O)C(O)(c1ccccc1)c1ccccc1)C2 (configuration not stated)", "normalized growth": 0.983}
{"COMPOUND": "O=C(Nc1ccc([N+](=O)[O-])cc1Cl)c1cc(Cl)ccc1O", "normalized growth": 1.06}
{"COMPOUND": "O=C1C=CC(=O)c2c(O)cccc21", "normalized growth": 0.992}
{"COMPOUND": "Oc1cccc2cccnc12", "normalized growth": 0.0623}
{"COMPOUND": "COC(=O)C(O)[C@H]1C(C)(C)[C@@H](OC(C)=O)[C@@H]2CC3=C4CC(=O)O[C@@H](c5ccoc5)[C@]4(C)CCC3[C@@]1(C)C2=O (some centres not stated)", "normalized growth": 1}
{"COMPOUND": "COc1ccc(NS(=O)(=O)c2ccc(N)cc2)nn1", "normalized growth": 0.997}
{"COMPOUND": "C[C@]12CC[C@@H](O)C[C@H]1CCc1ccccc12", "normalized growth": 1}
